procedure-summary: RAM pathway blockade in budding yeast – dse1pr::URA3 reporter, 5-FOA selection, pilot screen (AID 869);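 also: 0% = DMSO wells with no growth and 100% = 10 µM 1-NA-PP1 with full growth; RAM network block rescues cells from 5-FOA so hits raise OD615 growth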
experimental-context: S. cerevisiae dse1pr::URA3 5-FOA growth, OD615, 2 d; at 10 µM; hits give high values; strain carries analog-sensitive mutant Cbk1 kinase
measure: inhibition (%)
Reply with just the number (in %).

Past entries and their recorded results:
CC1C(=O)C(C)C(c2cccs2)NC1c1cccs1 (stereo not drawn) | 0.78
CCn1c2ccccc2c2cc(Nc3cc(C)nc4ncnn34)ccc21 | -0.255
c1ccc(-n2ncc3c(NC4CCCCCC4)ncnc32)cc1 | 1.17
N#C/C(C(=O)N1CCOCC1)=C1/SC=C(c2ccccc2)N1c1ccccc1 | 2.57
COc1ccc(S(=O)(=O)NCc2ccc3c(c2)OCO3)cc1C(=O)O | 1.89

Prompt line: For the molecule `CSc1nc2ccccc2c(=O)n1N` , give its measured inhibition value.
Response line: 1.75

Prompt line: For the molecule `COc1cccc(-n2c(Cc3cc(=O)[nH]c(=O)[nH]3)nnc2SC(C)C)c1` , give its measured inhibition value.
Response line: 1.71

Prompt line: For the molecule CCOc1cccc(C(=O)N2CCCCC2c2cccnc2)c1 (stereo not drawn) , give its measured inhibition value.
Response line: 0.635

Prompt line: For the molecule CC12CN3CC(C)(CN(C1)C3c1ccc(Cl)cc1Cl)C2=O (stereo not drawn) , give its measured inhibition value.
Response line: 1.56

Prompt line: For the molecule `CC1CCN(C(=O)CSc2nnc(Cn3c(=O)sc4ccccc43)n2C)CC1` , give its measured inhibition value.
Response line: 0.075

Prompt line: For the molecule `CC(=O)c1ccc(NC(=O)CSc2nnc(Cc3cccn3C)n2-c2ccc(F)cc2)cc1` , give its measured inhibition value.
Response line: 0.005

Prompt line: For the molecule `O=C(NCc1cccnc1)c1cccc(S(=O)(=O)N2CCOCC2)c1` , give its measured inhibition value.
Response line: 1.6

Prompt line: For the molecule `CCOc1ccc(-c2nnc(-c3ccco3)o2)cc1` , give its measured inhibition value.
Response line: 0.695

Prompt line: For the molecule `CCc1c(C)n([O-])c2c([n+]1=O)CCC2` , give its measured inhibition value.
Response line: 0.88

Prompt line: For the molecule CC1=C(C(N)=O)C(c2ccncc2)n2nc(-c3ccccc3Cl)nc2N1 (stereo not drawn) , give its measured inhibition value.
Response line: 1.56

Prompt line: For the molecule `CCN1CCN(C(=O)C2CCN(Cc3nc(-c4ccc(Cl)cc4)oc3C)CC2)CC1` , give its measured inhibition value.
Response line: 2.88

Prompt line: For the molecule `CCn1c(=O)cc(OCC(=O)Nc2nc(C)cs2)c2ccccc21` , give its measured inhibition value.
Response line: 1.33

Prompt line: For the molecule CS(=O)(=O)N(Cc1ccco1)CC(O)Cn1c2ccccc2c2ccccc21 (stereo not drawn) , give its measured inhibition value.
Response line: 1.9

Prompt line: For the molecule `COc1ccc2c(c1)CCc1cc(C(=O)N3CCN(c4ccc(N5CCOCC5)nn4)CC3)sc1-2` , give its measured inhibition value.
Response line: 0.905

Prompt line: For the molecule `CCCCN(C)C(=O)c1ccc(CS(=O)(=O)c2ccccc2C)o1` , give its measured inhibition value.
Response line: -0.45

Provenance of the data: PubChem BioAssay
